Target: BRM (Homo sapiens, UniProt P51531)
Construct: made in house; host or cells: High Five insect cells
Sequence (P51531 whole entry): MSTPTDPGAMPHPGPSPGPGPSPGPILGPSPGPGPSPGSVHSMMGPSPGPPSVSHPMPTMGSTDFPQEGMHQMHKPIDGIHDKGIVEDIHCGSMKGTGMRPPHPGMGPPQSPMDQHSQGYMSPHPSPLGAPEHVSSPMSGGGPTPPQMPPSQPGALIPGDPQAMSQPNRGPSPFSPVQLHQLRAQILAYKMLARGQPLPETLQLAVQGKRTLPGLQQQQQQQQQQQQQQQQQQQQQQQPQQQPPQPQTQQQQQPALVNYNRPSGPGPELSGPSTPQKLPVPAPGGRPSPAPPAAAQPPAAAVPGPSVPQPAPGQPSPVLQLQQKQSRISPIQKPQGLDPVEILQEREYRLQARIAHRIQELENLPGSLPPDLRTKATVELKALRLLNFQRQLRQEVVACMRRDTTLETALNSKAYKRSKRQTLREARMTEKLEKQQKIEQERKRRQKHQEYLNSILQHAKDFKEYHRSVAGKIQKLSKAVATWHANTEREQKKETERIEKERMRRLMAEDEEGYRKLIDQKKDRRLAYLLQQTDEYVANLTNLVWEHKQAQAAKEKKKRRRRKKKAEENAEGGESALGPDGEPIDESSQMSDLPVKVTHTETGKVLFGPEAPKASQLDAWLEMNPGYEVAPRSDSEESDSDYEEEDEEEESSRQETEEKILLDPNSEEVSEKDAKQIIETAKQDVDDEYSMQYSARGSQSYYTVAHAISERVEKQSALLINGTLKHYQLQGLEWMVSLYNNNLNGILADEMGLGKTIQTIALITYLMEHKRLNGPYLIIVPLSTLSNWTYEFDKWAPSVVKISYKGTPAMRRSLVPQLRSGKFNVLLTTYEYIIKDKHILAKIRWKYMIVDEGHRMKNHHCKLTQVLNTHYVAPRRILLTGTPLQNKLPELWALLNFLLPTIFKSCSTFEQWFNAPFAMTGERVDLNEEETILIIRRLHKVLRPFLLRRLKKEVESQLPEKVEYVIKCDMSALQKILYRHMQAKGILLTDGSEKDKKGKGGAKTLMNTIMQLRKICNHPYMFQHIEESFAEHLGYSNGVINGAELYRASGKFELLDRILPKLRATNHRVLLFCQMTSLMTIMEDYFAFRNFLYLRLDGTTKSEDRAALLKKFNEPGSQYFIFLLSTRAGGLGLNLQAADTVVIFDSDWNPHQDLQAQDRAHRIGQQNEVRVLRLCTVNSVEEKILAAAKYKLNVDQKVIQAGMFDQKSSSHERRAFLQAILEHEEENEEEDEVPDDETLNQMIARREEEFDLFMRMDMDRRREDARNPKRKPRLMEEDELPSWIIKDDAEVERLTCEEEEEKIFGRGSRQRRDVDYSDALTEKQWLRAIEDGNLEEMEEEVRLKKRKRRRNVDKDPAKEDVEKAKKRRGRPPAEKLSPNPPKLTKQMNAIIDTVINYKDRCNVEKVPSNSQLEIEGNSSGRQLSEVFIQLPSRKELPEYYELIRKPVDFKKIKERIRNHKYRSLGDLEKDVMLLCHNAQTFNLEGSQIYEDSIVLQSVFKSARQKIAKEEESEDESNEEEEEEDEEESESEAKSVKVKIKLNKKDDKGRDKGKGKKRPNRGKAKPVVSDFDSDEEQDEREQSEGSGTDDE
Assay: ATPase catalytic activity of BRM, ADP-Glo in vitro biochemical assay
Details: ATPase catalytic activity, 30 nM BRM, 400 μM ATP, read-out: BRM IP50 (μM)*
Entries and their IC50 values follow.

| SMILES_TEXT | IC50 |
| --- | --- |
| COCC[C@H](NC(=O)c1ccn(S(C)(=O)=O)c1)C(=O)Nc1nc(-c2cccc(-c3ccncc3)c2)cs1 | < 0.01 µM |
| COCC(C)(C)n1ccc(C(=O)NCC(=O)Nc2nc(-c3cccc(-c4ccn(C)n4)c3)cs2)c1 | > 0.1 µM |
| COCCS(=O)(=O)n1ccc(C(=O)NCC(=O)Nc2nc(-c3cccc(N4C[C@@H](C)O[C@@H](C)C4)c3)cs2)c1 | > 0.01 µM |
| COC[C@H](NC(=O)c1ccn(S(C)(=O)=O)c1)C(=O)Nc1nc(-c2cccc(N3CCO[C@H](C)C3)c2)cs1 | < 0.01 µM |
| CC(C)(C)n1ccc(C(=O)NCC(=O)Nc2nc(-c3cccc(C#N)c3)cs2)n1 | > 0.1 µM |
| C[C@@H]1CN(c2cccc(-c3csc(NC(=O)CNC(=O)c4ccn(S(C)(=O)=O)c4)n3)c2)CC[C@H]1O | < 0.01 µM |
| CS(=O)(=O)n1cnc(C(=O)NCC(=O)Nc2nc(-c3cccc(-c4ccncc4)c3)cs2)c1 | < 0.01 µM |
| CS(=O)(=O)n1ccc(C(=O)NCC(=O)Nc2nc(-c3cccc(OC[C@H]4CCOC4)c3)cs2)c1 | < 0.01 µM |

Next, consider the following molecule.
Ask: Which measured IC50 value corresponds to CC[C@@H]1CN(c2cccc(-c3csc(NC(=O)CNC(=O)c4ccn(S(C)(=O)=O)c4)n3)c2)CCO1 ?
Result: > 0.01 µM
